- System: BRD4-BD1 (Homo sapiens)
- Assay Details: Binding affinity to BRD4-BD1 (bromoKdELECT assay)
- Experimental Context: 11-point 3-fold dilution series
- Protocol: Compounds were tested using a bromoKdELECT assay. T7 phage strains displaying bromodomains were grown in parallel in 24-well blocks in an E. coli host derived from the BL21 strain. […] Kds were determined using an 11-point 3-fold compound dilution series with one DMSO control point. […] The bromodomain concentration in the eluates was measured by qPCR.
pKd: −log10 of the molar value.
Readout Name: pKd

The cases that follow already have their pKd on record.
>  <Compound>
CCS(=O)(=O)Nc1ccc(Oc2ccc(F)c(OCCOC3CCN(c4ncc(C(=O)N[C@H]5C(C)(C)[C@H](Oc6ccc(C#N)c(Cl)c6)C5(C)C)cn4)CC3)c2F)c(-c2cn(C)c(=O)c3[nH]ccc23)c1

>  <pKd>
5.60 to 6.30

$$$$
>  <Compound>
Cn1cc(-c2ccccc2Oc2cccc(N3CC(N4CCN(c5ncc(C(=O)N[C@H]6C(C)(C)[C@H](Oc7ccc(C#N)c(Cl)c7)C6(C)C)cn5)CC4)C3)c2)c2cc[nH]c2c1=O

>  <pKd>
< 5.60

$$$$
>  <Compound>
CCS(=O)(=O)c1ccc(OCC(CCCN2CCN(c3ncc(C(=O)NC4C(C)(C)C(Oc5ccc(C#N)c(Cl)c5)C4(C)C)cn3)CC2)C2CC2)c(-c2cn(C)c(=O)c3[nH]ccc23)c1 (centres unmarked)

>  <pKd>
> 7.30

$$$$
>  <Compound>
CCS(=O)(=O)Nc1ccc(Oc2cccc(OCCOC3CCN(c4ncc(C(=O)N[C@H]5C(C)(C)[C@H](Oc6ccc(C#N)c(Cl)c6)C5(C)C)cn4)CC3)c2F)c(-c2cn(C)c(=O)c3[nH]ccc23)c1

>  <pKd>
< 5.60

$$$$

Proceed to the following item.
Q: Value wanted: pKd (BRD4-BD1 (Homo sapiens)) of entry Cn1cc(-c2cc(C(C)(C)O)ccc2Oc2ccc(CCOC3CCN(c4ncc(C(=O)N[C@H]5C(C)(C)[C@H](Oc6ccc(C#N)c(Cl)c6)C5(C)C)cn4)CC3)cc2)c2cc[nH]c2c1=O
A: < 5.60

---

- System: BRD4-BD2 (Homo sapiens, UniProt O60885)
- Assay Details: Binding affinity to BRD4-BD2 (bromoKdELECT assay)
- Experimental Context: 11-point 3-fold dilution series
- Procedure: Compounds were tested using a bromoKdELECT assay. T7 phage strains displaying bromodomains were grown in parallel in 24-well blocks in an E. coli host derived from the BL21 strain. […] Kds were determined using an 11-point 3-fold compound dilution series with one DMSO control point. […] The bromodomain concentration in the eluates was measured by qPCR.
pKd: −log10 of the molar value.
Readout Name: pKd

>  <Entry Smiles>
CCS(=O)(=O)Nc1ccc(Oc2cccc(OCCOC3CCN(c4ncc(C(=O)N[C@H]5C(C)(C)[C@H](Oc6ccc(C#N)c(Cl)c6)C5(C)C)cn4)CC3)c2)c(-c2cn(C)c(=O)c3[nH]ccc23)c1

>  <pKd>
6.30 to 7.30

$$$$

Proceed to the following item.
Q: Please look up its pKd: CCS(=O)(=O)Nc1ccc(Oc2cccc(N3CC(N4CCN(c5ncc(C(=O)N[C@H]6C(C)(C)[C@H](Oc7ccc(C#N)c(Cl)c7)C6(C)C)cn5)CC4)C3)c2)c(-c2cn(C)c(=O)c3[nH]ccc23)c1
A: 6.30 to 7.30

---

Please go through the items and note down their GI50.
- Test system: T-Rex 293 cell line SC cells lacking increased expression of progesterone receptor isoform B protein
- Assay Details: Cellular growth inhibition assay, T-Rex 293 SC cells not exposed to doxycycline (no increased progesterone receptor isoform B expression), CellTiter-Glo
- Format: cell-based
- Experimental Context: T-Rex 293 SC cells without doxycycline (no increased PR isoform B), 72 hours

The cases that follow already have their GI50 on record.
>  <Molecule>
CCS(=O)(=O)Nc1ccc(Oc2cccc(OCCOC3CCN(c4ccc(C(=O)N[C@H]5C(C)(C)[C@H](Oc6ccc(C#N)c(Cl)c6)C5(C)C)cn4)CC3)c2)c(-c2cn(C)c(=O)c3[nH]ccc23)c1

>  <GI50>
< 500 nM

$$$$
>  <Molecule>
Cn1cc(-c2cc(C(C)(C)O)ccc2Oc2ccc(N3CC(CN4CC5CC4CN5c4ncc(C(=O)N[C@H]5C(C)(C)[C@H](Oc6ccc(C#N)c(Cl)c6)C5(C)C)cn4)C3)cc2)c2cc[nH]c2c1=O (stereo partly drawn)

>  <GI50>
< 500 nM

$$$$
>  <Molecule>
CCS(=O)(=O)c1ccc(Oc2cccc(CCCOC3CC4(C3)CN(c3ncc(C(=O)N[C@H]5C(C)(C)[C@H](Oc6ccc(C#N)c(Cl)c6)C5(C)C)cn3)C4)c2F)c(-c2cn(C)c(=O)c3[nH]ccc23)c1

>  <GI50>
< 500 nM

$$$$
>  <Molecule>
CCS(=O)(=O)Nc1ccc(Oc2cccc(OC3CC4(CCN(c5ncc(C(=O)N[C@H]6C(C)(C)[C@H](Oc7ccc(C#N)c(Cl)c7)C6(C)C)cn5)CC4)C3)c2)c(-c2cn(C)c(=O)c3[nH]ccc23)c1

>  <GI50>
> 3000 nM

$$$$
>  <Molecule>
Cn1cc(-c2cc(C(C)(C)O)ccc2Oc2ccc(CCC3CCN(c4ncc(C(=O)N[C@H]5C(C)(C)[C@H](Oc6ccc(C#N)c(Cl)c6)C5(C)C)cn4)CC3)cc2)c2cc[nH]c2c1=O

>  <GI50>
> 3000 nM

$$$$

Fill in GI50 for each of the 4 molecules listed.
1. Cn1cc(-c2cc(C(C)(C)O)ccc2Oc2cccc(N3CC(OC4CCN(c5ncc(C(=O)N[C@H]6C(C)(C)[C@H](Oc7ccc(C#N)c(Cl)c7)C6(C)C)cn5)CC4)C3)c2F)c2cc[nH]c2c1=O
2. CCS(=O)(=O)Nc1ccc(Oc2cccc(OCCOCCOCCOC3CCN(c4ncc(C(=O)N[C@H]5C(C)(C)[C@H](Oc6ccc(C#N)c(Cl)c6)C5(C)C)cn4)CC3)c2)c(-c2cn(C)c(=O)c3[nH]ccc23)c1
3. CC(C)N(C1CCN(c2ncc(C(=O)N[C@H]3C(C)(C)[C@H](Oc4ccc(C#N)c(Cl)c4)C3(C)C)cn2)CC1)C1CN(c2cccc(Oc3ccc(C(C)(C)O)cc3-c3cn(C)c(=O)c4[nH]ccc34)c2F)C1
4. Cc1ccc(CCCOC2CCN(c3ncc(C(=O)N[C@H]4C(C)(C)[C@H](Oc5ccc(C#N)c(Cl)c5)C4(C)C)cn3)CC2)c(C)c1Oc1ccc(C(C)(C)O)cc1-c1cn(C)c(=O)c2[nH]ccc12

A:
1: < 500 nM; 2: < 500 nM; 3: 1500 to 3000 nM; 4: > 3000 nM

---

Please go through the items and note down their IC50.
- System: progesterone receptor ligand binding domain (GST-tagged PR LBD) (Homo sapiens, UniProt P06401)
- Sequence (P06401 679-913 limits assumed): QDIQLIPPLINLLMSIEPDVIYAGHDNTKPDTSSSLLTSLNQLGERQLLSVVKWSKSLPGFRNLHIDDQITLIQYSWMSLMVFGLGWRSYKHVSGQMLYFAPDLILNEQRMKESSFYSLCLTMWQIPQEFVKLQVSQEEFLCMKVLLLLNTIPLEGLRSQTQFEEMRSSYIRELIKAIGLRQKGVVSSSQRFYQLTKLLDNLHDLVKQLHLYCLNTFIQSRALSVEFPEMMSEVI

The cases that follow already have their IC50 on record.
>  <Entry Smiles>
Cn1cc(-c2cc(C(C)(C)O)ccc2Oc2ccc(OCC3CCN(c4ncc(C(=O)N[C@H]5C(C)(C)[C@H](Oc6ccc(C#N)c(Cl)c6)C5(C)C)cn4)CC3)cc2)c2cc[nH]c2c1=O

>  <Experimental Result>
> 2500 nM

$$$$
>  <Entry Smiles>
CCS(=O)(=O)Nc1ccc(Oc2cccc(N3CC(OC4CCN(c5ncc(C(=O)N[C@H]6C(C)(C)[C@H](Oc7ccc(C#N)c(Cl)c7)C6(C)C)cn5)CC4)C3)c2)c(-c2cn(C)c(=O)c3[nH]ccc23)c1

>  <Experimental Result>
> 2500 nM

$$$$
>  <Entry Smiles>
Cn1cc(-c2cc(C(C)(C)O)ccc2Oc2ccc(N3CC4(C3)CN(c3ncc(C(=O)N[C@H]5C(C)(C)[C@H](Oc6ccc(C#N)c(Cl)c6)C5(C)C)cn3)CCO4)cc2)c2cc[nH]c2c1=O

>  <Experimental Result>
50 to 500 nM

$$$$
>  <Entry Smiles>
CCS(=O)(=O)Nc1ccc(Oc2cccc(OC3CCC4(CC3)CCN(c3ncc(C(=O)N[C@H]5C(C)(C)[C@H](Oc6ccc(C#N)c(Cl)c6)C5(C)C)cn3)CC4)c2)c(-c2cn(C)c(=O)c3[nH]ccc23)c1

>  <Experimental Result>
> 2500 nM

$$$$

Proceed to the following item.
Q: Please look up its IC50: CN(C1CN(c2ccc(Oc3ccc(C(C)(C)O)cc3-c3cn(C)c(=O)c4[nH]ccc34)cc2)C1)C1CN(c2ncc(C(=O)N[C@H]3C(C)(C)[C@H](Oc4ccc(C#N)c(Cl)c4)C3(C)C)cn2)C1
A: 50 to 500 nM

---

- System: BRD4-BD2 (Homo sapiens, UniProt O60885)
- Assay Details: Binding affinity to BRD4-BD2 (bromoKdELECT assay)
- Experimental Context: 11-point 3-fold dilution series
pKd: −log10 of the molar value.
Please go through the items and note down their pKd.

The cases that follow already have their pKd on record.
>  <Entry Smiles>
Cn1cc(-c2cc(NS(=O)(=O)CC(F)(F)F)ccc2Oc2cccc(OCCOC3CCN(c4ncc(C(=O)N[C@H]5C(C)(C)[C@H](Oc6ccc(C#N)c(Cl)c6)C5(C)C)cn4)CC3)c2F)c2cc[nH]c2c1=O

>  <System>
BRD4-BD2 (Homo sapiens, UniProt O60885)

>  <pKd>
> 7.30

$$$$
>  <Entry Smiles>
Cn1cc(-c2ccccc2Oc2cccc(OCCOC3CCN(c4ncc(C(=O)N[C@H]5C(C)(C)[C@H](Oc6ccc(C#N)c(Cl)c6)C5(C)C)cn4)CC3)c2)c2ccn(C)c2c1=O

>  <System>
BRD4-BD2 (Homo sapiens, UniProt O60885)

>  <pKd>
< 5.60

$$$$
>  <Entry Smiles>
CCS(=O)(=O)Nc1ccc(Oc2ccc(F)c(OCCOC3CCN(c4ncc(C(=O)N[C@H]5C(C)(C)[C@H](Oc6ccc(C#N)c(Cl)c6)C5(C)C)cn4)CC3)c2F)c(-c2cn(C)c(=O)c3[nH]ccc23)c1

>  <System>
BRD4-BD2 (Homo sapiens, UniProt O60885)

>  <pKd>
> 7.30

$$$$
>  <Entry Smiles>
CCS(=O)(=O)Nc1ccc(Oc2cccc(OCCOC3CCN(c4ncc(C(=O)N[C@H]5C(C)(C)[C@H](Oc6ccc(C#N)c(Cl)c6)C5(C)C)cn4)CC3)c2F)c(-c2cn(C)c(=O)c3[nH]ccc23)c1

>  <System>
BRD4-BD2 (Homo sapiens, UniProt O60885)

>  <pKd>
> 7.30

$$$$

Proceed to the following item.
Q: Please look up its pKd: CCS(=O)(=O)Cc1ccc(Oc2cccc(OCCOC3CCN(c4ncc(C(=O)N[C@H]5C(C)(C)[C@H](Oc6ccc(C#N)c(Cl)c6)C5(C)C)cn4)CC3)c2)c(-c2cn(C)c(=O)c3[nH]ccc23)c1
A: 6.30 to 7.30
